- System: LOX IMVI melanoma
- assay-info: NCI-60 one-dose screen, 48 h
- measurement-parameters: 10 µM unless noted
This is part of a sample that, as a whole, favours compounds with a hit. Of some 83,000 tested, about 20% had one in any assay. Calls of active or inactive are those of the source. Rule for the calls: active = growth percent below 10; inactive = the rest.
Mark one answer only. Choices: label 1 = active, label 0 = inactive

Input line: Which outcome was entered for the molecule COc1c(C)cnc(CSc2nc(-c3ccc(C)cc3)cn2-c2ccc(Cl)cc2)c1C in this test?
Output line: label 0

Input line: What outcome does the record of this test show for C[C@@H]1C(=O)N(C[C@@H](Cc2ccccc2)NC(=O)OCc2ccccc2)[C@]1(Cc1ccccc1)C(=O)OCc1ccccc1 ?
Output line: label 0

Input line: What call does the record list for CNC1(C#N)CCN(Cc2ccccc2)CC1 ?
Output line: label 0

Input line: # lookup: test call for COc1cc(-c2cccc([N+](=O)[O-])c2)c(-c2nc(-c3ccccc3)c(-c3ccccc3)n2C2CC2)cc1OC
Output line: label 0

Input line: Record lookup: outcome of this test for Fc1ccc(Nc2nc3nonc3nc2Nc2ccc(F)cc2)cc1 ?
Output line: label 1

Input line: How did this test come out for COc1cc2oc3cc(C)oc(=O)c3c2cc1OC ?
Output line: label 0

Input line: Record lookup: outcome of this test for CCOC(=O)c1c(C)nc2c(c1N)/C(=C/c1cc(OC)c(OC)c(OC)c1)C(=O)N2c1ccc(OC)cc1 ?
Output line: label 0

Input line: Hello, I am checking results. What call was entered for C[C@@H]1C(=O)N(C[C@H](Cc2ccccc2)N(Cc2ccccc2)Cc2ccccc2)[C@]1(Cc1ccccc1)C(=O)OC(C)(C)C ?
Output line: label 0

Input line: Per the assay record, what outcome was assigned to COc1ccccc1C(=O)NC(=S)Nc1ccc(-c2nc3ccccc3[nH]2)cc1 ?
Output line: label 0

* * *

- Test system: M14 melanoma
- assay-info: NCI-60 one-dose screen, 48 h (100 = growth as untreated, 0 = no growth, -100 = all killed)
- measurement-parameters: 10 µM unless noted
This is part of a sample that, as a whole, favours compounds with a hit. Of some 83,000 tested, about 20% had one in any assay.
Would you mind telling me the reported growth of each entry?
Expressed in %, but write only the number.

Input line: Look up growth with M14 melanoma for this compound: N#Cc1c(NC(=O)c2ccccc2I)sc2c1CCCC2
Output line: 16.3

Input line: Under M14 melanoma: growth value of O=C(c1ccccc1)c1ccc(N2C(=O)C3C4c5ccccc5C(/C=C/C(=O)c5ccccn5)(c5ccccc54)C3C2=O)cc1 (configuration not stated) ?
Output line: 21.3

Input line: Lab request: please report growth under test system M14 melanoma for Cc1cc(=O)[nH]c(N/N=C/c2cc(Br)ccc2O)n1
Output line: 10

Input line: Tell me reported growth for CC(C)N(CCOC(=O)Nc1ccccc1Cl)C(C)C , tested with M14 melanoma.
Output line: 99.5

Input line: Form field - read-out: growth; system: M14 melanoma; submitted item: Clc1ccc2[nH]c3c(NCCCN4CCOCC4)ncnc3c2c1
Output line: 73.8

Input line: Recorded growth for C(=C\c1nc2ccccc2[nH]1)/c1nc2ccccc2[nH]1 with M14 melanoma, please?
Output line: 100

Input line: Recorded growth for N#Cc1c(N)n2c(nc1=Nc1ccc(Cl)cc1)sc1cc(Cl)ccc12 with M14 melanoma, please?
Output line: 62.2

Input line: M14 melanoma / growth / O=C(NCCN1CCC(O)CC1)c1cc2c(o1)C(=O)c1ccccc1C2=O : value?
Output line: -85.3

Input line: Param readout = growth; param system = M14 melanoma; param query = Nc1ccc(-c2cc3c(Nc4ccc(OCc5cccc(F)c5)c(Cl)c4)ncnc3s2)cc1 ; response: value
Output line: 51.9

Input line: Please provide the recorded growth for Cl.Fc1c[c-]c(-c2ccccn2)c(F)c1.[Pt].c1ccc([PH+](C[PH+](c2ccccc2)c2ccccc2)c2ccccc2)cc1 , tested on M14 melanoma.
Output line: -87.1

Input line: # returns recorded growth (system: M14 melanoma) for COc1cc2c(c(OC)c1OC)C(=O)/C(=C/c1cc(C)c(O)c(C)c1)S2
Output line: 28.8

Input line: GET /values?readout=growth&system=M14 melanoma&item= CC1(C)N=C(N)N=C(N)N1c1cccc(CN)c1
Output line: 96.7

Input line: GET /values?readout=growth&system=M14 melanoma&item= Clc1ccc(-c2nnc(Cn3ccnc3)o2)cc1
Output line: 87.1

Input line: Give M14 melanoma growth for N#Cc1c(NC(=O)c2ccc(Br)cc2)sc2c1CCCC2
Output line: 17.3

Input line: Provide the documented growth with M14 melanoma as the system for CCOc1ccc(-c2nc3ccc(-c4nc5ccc(N6CCN(C)CC6)cc5[nH]4)cc3[nH]2)cc1OCC
Output line: 10

Input line: Quick check: growth on M14 melanoma, item C=C(C)C1CCC(=C)C2CCC3(C)OC12/C=C(/COC(C)=O)CCC3O (configuration not stated) ?
Output line: 109

Input line: Query for M14 melanoma: what growth does the record show for Cc1cc(=O)c2cc3nc(-c4cccnc4)oc3c(Br)c2o1 ?
Output line: 98.8

Input line: Please provide the recorded growth for CCN(CCO)CC(=O)c1cc(Cl)cc(Cl)c1Cl , tested on M14 melanoma.
Output line: 99.2

Input line: Give the reported growth for C=C(Cl)COC(=O)C(C)(C)O (system: M14 melanoma).
Output line: 103

Input line: What is its growth for M14 melanoma? Entry: CC(C)CCC[C@@H](C)[C@H]1CCC2C3=CCC4C(=O)C=CC(=O)C4C3CC[C@@]21C (some centres not stated)
Output line: 17.5

Input line: Which growth is reported with M14 melanoma for this entry: COc1ccc(/C=C2\C=C(c3ccccc3)N(CCc3ccccc3)C2=O)cc1OC ?
Output line: 51.5

Input line: Give growth (M14 melanoma) of the following compound: C=C(C=O)[C@@H]1CC=C(C=O)CC1
Output line: 14.8

* * *

- System: SR leukemia
- assay-info: NCI-60 one-dose screen, 48 h (100 = growth as untreated, 0 = no growth, -100 = all killed)
- measurement-parameters: 10 µM unless noted
This is part of a sample that, as a whole, favours compounds with a hit. Of some 83,000 tested, about 20% had one in any assay.
value-kind: growth (%)
Write down the numeric answer in % and omit the unit.

Input line: Look at this compound and give its reported growth. O=C(O)CC1Sc2ccccc2NC1=O (stereo not drawn)
Output line: 61.1

Input line: Requested field: growth. Item: Cc1c(Cl)cccc1NS(=O)(=O)c1ccccc1
Output line: 113

Input line: Which growth is listed for OCCCCc1nccc2c1[nH]c1ccccc12 ?
Output line: 140

* * *

- Test system: LOX IMVI melanoma
- assay-info: NCI-60 one-dose screen, 48 h
- measurement-parameters: 10 µM unless noted
The panel holds about 83,000 compounds, 20% with a hit somewhere; the sample as a whole holds those more often. Calls of active or inactive are those of the source. How the source made its calls: active means growth percent below 10; inactive means the rest.
The categories you may choose from are YES for active, NO for inactive

Input line: Recorded test outcome, item O=C(/C=C/C12c3ccccc3C(c3ccccc31)C1C(=O)N(c3ccccc3)C(=O)C12)c1ccc(Cl)cc1 (stereo not drawn)
Output line: YES

Input line: Write down the call the test reported for this molecule. Item: Cc1c2c(cn1Cc1ccccc1)CCc1cn[nH]c1-2
Output line: NO

Input line: Just curious, what result did N#Cc1cnn2c(-c3ccc(Cl)cc3)nc(NC3CC3)nc12 get here?
Output line: NO

Input line: Any idea what this test logged for COc1cc(C(=O)Nc2cc(O)c(CC=C(C)C)c(O)c2)cc2c1O[C@]1(C)CC[C@@H](O)C(C)(C)[C@H]1C2 ?
Output line: YES

Input line: # fetch the recorded call for COc1ccc(/C(C)=C(\c2ccc(Cl)cc2)c2ccc(OCCN3CCCCCC3)cc2)cc1F here
Output line: YES

Input line: Given CO[C@H]1/C=C/O[C@@]2(C)Oc3c(C)c(O)c4c(c3C2=O)C(=O)C(/C=N/N(c2ccccc2)c2ccccc2)=C(NC(=O)/C(C)=C\C=C\[C@H](C)[C@H](O)[C@@H](C)[C@@H](O)[C@@H](C)[C@H](OC(C)=O)[C@@H]1C)C4=O , state the outcome it received in this test.
Output line: YES

Input line: Could you kindly confirm the outcome this assay logged for O=C(O)C1C[C@](O)(c2ccc(F)cc2)[C@@H](c2ccc(F)cc2)O1 (stereo partly drawn) ?
Output line: NO

Input line: Dear all, I need the recorded test outcome for CC(=[N-])N1CCC[C@@H](Nc2c3ccccc3nc3ccccc23)C1.[Cl][Pt].[NH-]CCC[NH-] , thank you.
Output line: NO

* * *

- Tested on: K-562 leukemia
- assay-info: NCI-60 one-dose screen, 48 h
- measurement-parameters: 10 µM unless noted
The panel holds about 83,000 compounds, 20% with a hit somewhere; the sample as a whole holds those more often. Activity calls are given as the source filed them. Rule for the calls: active = growth percent below 10; inactive = the rest.
// allowed return values: YES = active, NO = inactive

Input line: For C=CC(=O)N[C@@H](Cc1ccc(-c2cc(Cl)cc(Cl)c2)cc1)[C@@H](O)[C@H](O)C(=O)O , what call appears in the results of this test?
Output line: NO

Input line: Entry Cc1nn(Cc2ccccc2)cc1C(=O)Nc1sc2c(c1C(N)=O)CCC(=O)C2 : call = ?
Output line: NO

Input line: Look up the recorded call for C=C1c2c(C)nn(-c3ccc(S(N)(=O)=O)cc3)c2N(C)C23CC1C1(C)c4c(C)nn(-c5ccc(S(N)(=O)=O)cc5)c4N(C)C(C)(CC12)C3 (centres undefined) in this test.
Output line: NO

Input line: // outcome(item) with item = C=C(C)[C@@H]1CC[C@]2(CNCCO)CC[C@]3(C)[C@H](CC[C@@H]4[C@@]5(C)CCC(N)[C@@](C)(CO)[C@@H]5CC[C@]43C)[C@@H]12 (some centres undefined)
Output line: YES

Input line: What did this assay record as the result for Nc1ccc(S(=O)(=O)Nc2ccsc2-c2nc(-c3ccccc3)no2)cc1 ?
Output line: NO

Input line: Entry O=C(c1ccccc1)c1ccc(Cl)c([N+](=O)[O-])c1 : call = ?
Output line: YES

Input line: Please indicate how the test categorized NC(=Nc1ccc(N)cc1)C(N)=Nc1ccc(N)cc1 .
Output line: NO

Input line: Kindly provide the recorded test outcome for the following molecule: c1ccc(-c2oc3ccccc3c2-c2ccccc2)cc1
Output line: NO

Input line: Please share the test call associated with CCCCCCCCN(CCCCCCCC)C(=N)c1ccnc2ccccc12 .
Output line: YES

Input line: Recorded call for CC(C)n1nc(C#Cc2cccc3cc(-c4cccc(C(F)(F)F)c4)ncc23)c2c(N)ncnc21 ?
Output line: YES

Input line: Could you check what this test reported for CN=C1C=CC(=C(c2ccc(N(C)C)cc2)c2ccc(N(C)C)cc2)C=C1 ?
Output line: YES

Input line: Which outcome was assigned to CCN(CC)CCCNC(=O)c1ccc(N)cc1O in this test?
Output line: NO

Input line: Hi, sorry to bother you, what did the test record for CCC(O)(C(c1ccccc1)c1ccccn1)C(c1ccccc1)c1ccccn1 (centres undefined) ?
Output line: NO

Input line: Check the results log: what was the call for COC(=O)CCCNC(=O)C(=O)c1c(O)c(O)c(C(C)C)c2cc(C)c(-c3c(C)cc4c(C(C)C)c(O)c(O)c(C(=O)C(=O)NCCCC(=O)OC)c4c3O)c(O)c12 ?
Output line: YES

Input line: Called result for CC(C)OC(=O)NNC(=O)c1ccncc1
Output line: NO

Input line: What was the test verdict on O=C(Nc1ccccn1)[C@H](O)[C@@H](O)C(=O)N1CCOCC1 ?
Output line: NO

Input line: In this assay, the call recorded for COc1cc(/C=C/c2nc(Nc3ccc(S(=O)(=O)Nc4cc(C)on4)cc3)c3ccccc3n2)ccc1O was what?
Output line: NO

Input line: Which outcome was assigned to Cc1ccc(S(=O)(=O)Nc2sccc2-c2nc(-c3ccccc3)no2)cc1 in this test?
Output line: NO

Input line: Status in this test for CC(C)n1nc(C#Cc2cccc(NC(=O)c3cccc(C(F)(F)F)c3)c2)c2c(N)ncnc21 ?
Output line: YES

Input line: Given CC(C)OCCCNCC(=O)Nc1ccc(S(=O)(=O)c2ccc(NC(=O)CNCCCOC(C)C)cc2)cc1 , state the outcome it received in this test.
Output line: NO

Input line: Returns: the outcome recorded for COc1ccc(C2CC(c3cnccn3)=NN2)cc1OC (centres undefined) in this assay.
Output line: NO

Input line: Could you kindly confirm the outcome this assay logged for O=C(O)c1ccccc1C(=O)Nc1ccc(Cl)cc1 ?
Output line: NO

Input line: Please indicate how the test categorized COc1ccc2c(c1)/C(=C\c1sc(=S)[nH]c1O)C(C(=O)O)=N2 .
Output line: NO

Input line: What was the test verdict on CN1CCN(C(=O)[C@]23CCC(C)(C)C[C@@H]2C2=CC[C@@H]4[C@@]5(C)Cc6c([nH]c7ccccc67)C(C)(C)[C@@H]5CC[C@@]4(C)[C@]2(C)CC3)CC1 ?
Output line: NO

Input line: Each molecule tested received a call. Report the one for CCOC(=O)C1C(=O)C=C(c2cnccn2)CC1c1ccc(OC)c(OC)c1 (centres undefined) .
Output line: NO

Input line: Each molecule tested received a call. Report the one for CCCCCOC(=O)c1cccc(NC(=O)CN(CC)CC)c1 .
Output line: NO

Input line: How was Cc1csc(NC(=O)c2sc3nc(-c4cccs4)ccc3c2N)n1 classified in this test?
Output line: NO

Input line: // return assay outcome for COc1ccccc1C(=O)NC(=S)Nc1ccc(-c2nc3ccccc3[nH]2)cc1
Output line: NO

Input line: Each molecule tested received a call. Report the one for Cc1ccccc1NC(=O)CN(C)C .
Output line: YES

Input line: # lookup: test call for Clc1ccc2[nH]c3c(NCCCN4CCOCC4)ncnc3c2c1
Output line: NO

Input line: Look up the recorded call for COc1cc2c(c(OC)c1OC)C(=O)/C(=C/c1cc(C)c(O)c(C)c1)S2 in this test.
Output line: NO

Input line: Look up the recorded call for C=C1C(=O)O[C@H]2[C@H]1CC/C(COC(=O)/C=C\C(=O)NCc1ccc(Cn3c(=O)sn(-c4ccc(OC)cc4)c3=O)cc1)=C\CC[C@@]1(C)O[C@@H]21 in this test.
Output line: YES

Input line: Test call, this molecule: CCOC(=O)c1ccc(NC(=O)CCCN(CC)CC)cc1
Output line: NO

Input line: How was O=C1CSC(c2ccccc2O)N1c1nnc(Cn2cnnc2)o1 (centres undefined) classified in this test?
Output line: NO

Input line: # outcome recorded in this test, key = CCCCOC(=O)c1ccc(NC(=O)C(C)N2CCOCC2)cc1 (centres undefined)
Output line: NO

Input line: # fetch the recorded call for CN(C)CCC(O)(Cc1ccccc1)c1ccccc1 (centres undefined) here
Output line: NO

Input line: Recorded call for CN1CCN(C2=C(Cl)C(=O)c3ccccc3C2=O)CC1 ?
Output line: NO

Input line: Recorded test call requested for Cc1nc(Nc2ccc(NC(=S)Nc3ccccc3)cc2)nc2nc(Nc3ccc(S(=O)(=O)O)cc3)[nH]c(=O)c12
Output line: NO

Input line: # lookup: test call for CCn1c(Sc2nnc(NC(=O)CCN3CCCC3)s2)nc2c1c(=O)n(C)c(=O)n2C
Output line: NO
